Tested on: MIWI (PIWIL1) piRISC loaded with L1MC piRNA (30 nt);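 note: 1 nM active piRISC with 0.1 nM target library at 33 °C single turnover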
Procedure Text: pre-steady-state target cleavage rate (min^-1); MIWI and MILI are mouse PIWI proteins and EfPiwi is from a freshwater sponge; tags in brackets are library labels; higher = faster piRNA-guided slicing of the target;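 note: 1 nM active piRISC with 0.1 nM target library at 33 °C single turnover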
Run Conditions: guide: L1MC piRNA 5'p-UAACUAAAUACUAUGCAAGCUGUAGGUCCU; auxiliary factor: none (no GTSF1)
Whole data set: some 8,200 sequences, median “pre-steady-state target cleavage rate” near 0.024, cut for the highest 2% near 1.3. The sample holds the highest values, similar sequences and a random draw of the others, so the mix is not that of the screen.
Observed Property: pre-steady-state target cleavage rate
No unit in the answer, only the number.

In [3]: df
Out[3]:
                      biosequence  readout_number
0  ACGACCUUCAGCUUGCAUAGUAUUUAGUUA          0.0921
1  AGCACCUUCAGCUUGCAUAGUAUUUAGUUA          0.0548
2  UCCUCCUUCAGCUUGCUUAGUAUUUAGUUA          0.0243
3  UGCACCUUCAGCUUGCAUAGUAUUUAGUUA          0.0562
4  UCGACCUUCAGCUUGCAUAGUAUUUAGUUA          0.0696

Report pre-steady-state target cleavage rate, nothing else, for this sequence: UCCACCUUCAGCUUGCAAAGUAUUUAGUUA
0.0305

Report pre-steady-state target cleavage rate, nothing else, for this sequence: UCCUCCUUCAGCUUGCAAAGUAUUUAGUUA
0.0323
